# TARGET OR SYSTEM: human recombinant Btk (Homo sapiens (Human))
# Sequence (Q06187 whole entry): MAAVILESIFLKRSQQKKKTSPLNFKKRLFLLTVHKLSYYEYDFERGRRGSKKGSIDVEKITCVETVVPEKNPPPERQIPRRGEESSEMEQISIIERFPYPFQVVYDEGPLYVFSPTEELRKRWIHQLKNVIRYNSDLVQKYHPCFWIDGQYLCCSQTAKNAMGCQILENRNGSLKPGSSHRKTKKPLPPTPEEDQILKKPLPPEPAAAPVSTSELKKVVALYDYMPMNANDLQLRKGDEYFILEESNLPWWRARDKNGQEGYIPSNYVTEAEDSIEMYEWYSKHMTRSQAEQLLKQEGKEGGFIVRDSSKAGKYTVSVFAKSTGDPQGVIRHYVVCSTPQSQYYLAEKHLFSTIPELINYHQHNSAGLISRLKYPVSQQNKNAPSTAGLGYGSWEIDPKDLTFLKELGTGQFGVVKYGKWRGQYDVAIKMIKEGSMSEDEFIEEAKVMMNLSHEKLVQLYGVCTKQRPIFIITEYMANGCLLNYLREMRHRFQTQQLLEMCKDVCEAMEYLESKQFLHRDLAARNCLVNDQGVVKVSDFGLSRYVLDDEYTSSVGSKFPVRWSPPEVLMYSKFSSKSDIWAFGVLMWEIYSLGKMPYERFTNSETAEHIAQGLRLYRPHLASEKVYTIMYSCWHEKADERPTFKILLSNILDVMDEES
# METHOD: Btk Enzymatic Activity Assay (Caliper-based kinase assay)
# Type: biochemical
A collection of compounds and their measured pIC50
Convention used: pIC50 is expressed as -log10 of the molar concentration.

Which measured pIC50 belongs to CCN1CCN(C(C)(C)C=C(C#N)C(=O)N2CCC[C@H]2Cn2nc(-c3ccc(Oc4ccccc4)cc3F)c3c(N)ncnc32)CC1 , tested on human recombinant Btk (Homo sapiens (Human))?
9.05

Which measured pIC50 belongs to CN1CCN(C(C)(C)C=C(C#N)C(=O)N2CCC[C@H]2Cn2nc(-c3ccc(Oc4ccccc4)cc3F)c3c(N)ncnc32)CC1 , tested on human recombinant Btk (Homo sapiens (Human))?
8.42

Which measured pIC50 belongs to CC(C)(C=C(C#N)C(=O)N1CCC[C@H]1Cn1nc(-c2ccc(Oc3ccccc3)cc2F)c2c(N)ncnc21)N1CC2(COC2)C1 [Example 19a] , tested on human recombinant Btk (Homo sapiens (Human))?
8.25

###

# TARGET OR SYSTEM: human recombinant Btk (Homo sapiens (Human))
# METHOD: Btk Enzymatic Activity Assay (Caliper-based kinase assay)
# Assay type: biochemical
# SETTINGS: human recombinant Btk 0.5 nM, ATP 16 μM, room temperature 3 h
# Experimental: A Caliper-based kinase assay (Caliper Life Sciences, Hopkinton, Mass.) was used to measure inhibition of Btk kinase activity of a compound of the present disclosure. […] The reaction was then terminated with EDTA, final concentration 20 mM and the phosphorylated reaction product was quantified on a Caliper Desktop Profiler (Caliper LabChip 3000). […] This value is presented as the IC50.
PROPERTY: IC50 (nM)
Report as a plain number; the unit nM is understood.

{"MOLECULE": "CN(C1COC1)C(C)(C)C=C(C#N)C(=O)N1CCC[C@H]1Cn1nc(-c2ccc(Oc3ccccc3)cc2F)c2c(N)ncnc21", "TARGET OR SYSTEM": "human recombinant Btk (Homo sapiens (Human))", "VAL": 2.1}

GET /values?readout=IC50&item= CC(C)(C=C(C#N)C(=O)N1CCC[C@@H](n2nc(-c3ccc(Oc4ccccc4)cc3F)c3c(N)ncnc32)C1)N1CCN(S(C)(=O)=O)CC1
1.4

GET /values?readout=IC50&item= CC(C)(C=C(C#N)C(=O)N1CCC1Cn1nc(-c2ccc(Oc3ccccc3)cc2F)c2c(N)ncnc21)N1CCOCC1 (centres unmarked)
4.1

GET /values?readout=IC50&item= CC(C)(C=C(C#N)C(=O)N1CCC[C@H]1Cn1nc(-c2ccc(Oc3ccccc3)cc2F)c2c(N)ncnc21)N1CCCC1
1.9

GET /values?readout=IC50&item= CCN1CCN(C(C)(C)C=C(C#N)C(=O)N2CCC[C@@H](n3nc(-c4ccc(Oc5ccccc5)cc4F)c4c(N)ncnc43)C2)CC1=O
1.3

GET /values?readout=IC50&item= CC(C)N1CCN(C(C)(C)C=C(C#N)C(=O)N2CCC[C@@H](n3nc(-c4ccc(Oc5ccccc5)cc4F)c4c(N)ncnc43)C2)CC1
0.7

GET /values?readout=IC50&item= CC(C)(C=C(C#N)C(=O)N1CCC[C@H]1Cn1nc(-c2ccc(Oc3ccccc3)cc2F)c2c(N)ncnc21)CN1CCOCC1
5.2

GET /values?readout=IC50&item= CCN1CCN(C(C)(C)C=C(C#N)C(=O)N2CCC[C@@H](n3nc(-c4ccc(Oc5ccccc5)cc4F)c4c(N)ncnc43)C2)CC1
0.9

GET /values?readout=IC50&item= CC(C)(C=C(C#N)C(=O)N1CCC[C@@H](n2nc(-c3ccc(Oc4ccccc4)cc3F)c3c(N)ncnc32)C1)N1CC(O)C1
0.9

GET /values?readout=IC50&item= CC(C)(C=C(C#N)C(=O)N1CCC[C@H]1Cn1nc(-c2ccc(Oc3ccccc3)cc2F)c2c(N)ncnc21)N1CCNCC1
4.7

GET /values?readout=IC50&item= CC(C)(/C=C(\C#N)C(=O)N1CCC[C@@H](n2nc(-c3ccc(Oc4ccccc4)cc3F)c3c(N)ncnc32)C1)N1CC2(COC2)C1
1.5

GET /values?readout=IC50&item= CCN(C1COC1)C(C)(C)C=C(C#N)C(=O)N1CCC[C@@H](n2nc(-c3ccc(Oc4ccccc4)cc3F)c3c(N)ncnc32)C1 [Example 13a]
0.9

GET /values?readout=IC50&item= CC(C)(C=C(C#N)C(=O)N1CCC[C@@H](n2nc(-c3ccc(Oc4ccccc4)cc3F)c3c(N)ncnc32)C1)N1CCC(O)CC1
0.7

GET /values?readout=IC50&item= CN(C1COC1)C(C)(C)C=C(C#N)C(=O)N1CCC[C@@H](n2nc(-c3ccc(Oc4ccccc4)cc3F)c3c(N)ncnc32)C1
0.6
